Test system: p53^R280K MDA-MB-231 cells
method: Annexin V staining
Assay type: cell-based, human
settings: MDA-MB-231, 6 μM or 12 μM, 24 h
measure: increase in Annexin V stained cells compared to DMSO

| molecule | recordedMeasurement |
| --- | --- |
| S=C=NCCCC12CC3CC(CC(C3)C1)C2 [Ad-ITC 6] | 2.0-5.1 fold |
| S=C=NCC12CC3CC(CC(C3)C1)C2 [Ad-ITC 3, 1-Isothiocyanatomethyladamantane] | 2.0-5.1 fold |

---

method: Log P determination
Format: physicochemical
settings: octanol/sodium phosphate buffer (pH 7.4)
Overview of reported logP at 18 h across a group of compounds:
measure: logP at 18 h

| compound | measure | recordedMeasurement |
| --- | --- | --- |
| S=C=NCCCC12CC3CC(CC(C3)C1)C2 [Ad-ITC 6] | logP at 18 h | 5.17 |
| S=C=NCCOC12CC3CC(CC(C3)C1)C2 [Ad-ITC 8, 1-(2-Isothiocyanatoethoxy)adamantane] | logP at 18 h | 4.42 |
| S=C=NCCC12CC3CC(CC(C3)C1)C2 [Ad-ITC 5] | logP at 18 h | 4.76 |
| S=C=NCCc1ccccc1 [PEITC, Phenethyl isothiocyanate, reference compound] | logP at 18 h | 3.5 |
